SYSTEM: Xanthine dehydrogenase/oxidase (Bos taurus, UniProt P80457)
Sequence (P80457 whole entry): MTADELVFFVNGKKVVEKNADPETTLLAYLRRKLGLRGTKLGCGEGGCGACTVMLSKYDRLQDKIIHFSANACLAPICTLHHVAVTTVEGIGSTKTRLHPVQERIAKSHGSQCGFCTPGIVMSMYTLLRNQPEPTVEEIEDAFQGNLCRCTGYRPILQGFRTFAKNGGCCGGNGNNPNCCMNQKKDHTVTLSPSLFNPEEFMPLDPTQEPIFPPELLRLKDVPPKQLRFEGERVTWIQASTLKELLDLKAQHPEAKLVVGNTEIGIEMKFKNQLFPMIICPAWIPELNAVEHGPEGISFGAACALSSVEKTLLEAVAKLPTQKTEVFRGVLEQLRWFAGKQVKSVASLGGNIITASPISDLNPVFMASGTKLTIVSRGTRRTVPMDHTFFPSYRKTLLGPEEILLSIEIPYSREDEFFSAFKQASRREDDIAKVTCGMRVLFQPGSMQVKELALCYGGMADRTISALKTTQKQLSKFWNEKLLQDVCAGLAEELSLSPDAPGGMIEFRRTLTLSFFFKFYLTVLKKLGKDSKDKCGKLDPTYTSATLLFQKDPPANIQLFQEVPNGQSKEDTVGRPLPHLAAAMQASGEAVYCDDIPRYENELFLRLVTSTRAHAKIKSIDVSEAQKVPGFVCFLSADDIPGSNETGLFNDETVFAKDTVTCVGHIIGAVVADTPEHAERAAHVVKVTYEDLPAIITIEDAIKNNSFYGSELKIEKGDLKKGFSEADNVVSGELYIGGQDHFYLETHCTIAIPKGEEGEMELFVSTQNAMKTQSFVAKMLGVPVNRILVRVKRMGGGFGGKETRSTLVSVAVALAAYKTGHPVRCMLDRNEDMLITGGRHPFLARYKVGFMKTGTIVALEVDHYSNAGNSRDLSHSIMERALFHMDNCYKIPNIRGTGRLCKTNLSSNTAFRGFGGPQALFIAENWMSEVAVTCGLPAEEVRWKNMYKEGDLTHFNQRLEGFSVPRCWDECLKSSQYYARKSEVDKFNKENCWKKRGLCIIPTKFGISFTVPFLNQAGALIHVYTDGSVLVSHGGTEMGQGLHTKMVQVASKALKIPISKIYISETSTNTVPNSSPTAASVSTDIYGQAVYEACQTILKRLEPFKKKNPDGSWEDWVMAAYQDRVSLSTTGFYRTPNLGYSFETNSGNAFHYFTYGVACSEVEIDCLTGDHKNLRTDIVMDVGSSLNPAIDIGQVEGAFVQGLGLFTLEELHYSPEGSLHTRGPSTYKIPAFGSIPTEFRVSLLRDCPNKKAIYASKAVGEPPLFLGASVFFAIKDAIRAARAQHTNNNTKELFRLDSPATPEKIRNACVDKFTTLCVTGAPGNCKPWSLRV
ASSAY PROTOCOL: Inhibition of bovine xanthine oxidase assessed as reduction in uric acid formation at 100 uM using xanthine as substrate pretreated for 5 mins followed by substrate addition measured by UV-vis spectrophotometric method relative to control
EXPERIMENTAL SETUP: cattle
PARAMETER: inhibition at 100 µM
Respond with a number, then the unit of measure.

- COMPOUND: "COc1ccc(Nc2ncnc3c2C(c2ccccc2OC)c2ccc4ccccc4c2O3)cc1 (stereo not drawn)"
  OBSERVED: "30%"
- COMPOUND: "COc1ccc(Nc2ncnc3c2C(c2ccccc2OC)c2c(ccc4ccccc24)O3)cc1 (stereo not drawn)"
  OBSERVED: "30.1%"

Tested on Xanthine dehydrogenase/oxidase (Bos taurus, UniProt P80457), the item COc1ccc(Nc2ncnc3c2C(c2ccc(O)cc2)c2c(ccc4ccccc24)O3)cc1 (stereo not drawn) showed inhibition at 100 µM equal to 29.1%
